The following molecules are listed with their measured melting point values.

Below, each entry is followed by its recorded melting point result.
>>> reported_value("O=C(OCC(Cl)(Cl)Cl)c1ncn2c1CN=C(c1ccccc1)c1cc(Br)ccc1-2")
"113 to 116 °C"
>>> reported_value("O=C(OCC(F)(F)F)c1ncn2c1CN=C(c1ccccc1)c1cc(Br)ccc1-2")
"202 to 204 °C"
>>> reported_value("CCOC(=O)c1ncn2c1CN=C(c1ccccc1)c1cc(Cl)ccc1-2")
"174 to 175 °C"

Recorded melting point of `CNC1=Nc2ccc(Br)cc2C(c2ccccc2)=NC1` , please. 234 to 235 °C

Using the record for `CNC1=Nc2ccc(C#C[Si](C)(C)C)cc2C(c2ccccc2)=NC1` , report its melting point. 210 to 211 °C

Looking for the measured melting point of `Cc1nnc2n1-c1ccc(C#CC(C)(C)C)cc1C(c1ccccc1)=NC2` , can you help? 184 to 186 °C

Given the entry `CC(C)(C)OC(=O)c1ncn2c1CN=C(c1ccccc1)c1cc(Br)ccc1-2` , report its measured melting point. 222 to 223 °C

---

Antianxiety/ataxia for assorted compounds
test system: Male Sprague-Dawley rats; test: Rotorod performance in rats; conditions: ratio of lowest effective anxiolytic dose (situational anxiety) and lowest effective dose producing side effects in rotorod, PO
API doc: respond with a numeric literal and nothing else, no unit.

>>> reported_value("C#Cc1ccc2c(c1)C(c1ccccc1Cl)=NCc1nnc(C)n1-2")
10000

Now turn to the next compound.
Please give the measured Antianxiety/ataxia for this compound: Cc1nnc2n1-c1ccc(Cl)cc1C(c1ccccc1Cl)=NC2 [Triazolam, reference compound] 100

---

The following compounds are shown together with reported Antianxiety/sedation values.
system: Male Sprague-Dawley rats; test: Open-field locomotor activity in rats; settings: ratio of lowest effective anxiolytic dose (situational anxiety) and lowest effective dose producing side effects in locomotor activity, PO
Number only, no unit.

Below, each entry is followed by its recorded Antianxiety/sedation result.
>>> reported_value("Cc1nnc2n1-c1ccc(Cl)cc1C(c1ccccc1Cl)=NC2 [Triazolam, reference compound]")
300
>>> reported_value("C#Cc1ccc2c(c1)C(c1ccccc1Cl)=NCc1nnc(C)n1-2")
10000

// moving on: another record for Antianxiety/sedation
Fill blank: measured Antianxiety/sedation of the compound `C#Cc1ccc2c(c1)C(c1ccccc1)=NCC(=O)N2C` is ____. 100

---

# key: entry, value: melting point

# annotated cases, reported melting point shown
>>> reported_value("CCOC(=O)c1ncn2c1CN=C(c1cccs1)c1cc(C#C[Si](C)(C)C)ccc1-2")
"124 to 127 °C"
>>> reported_value("Cc1nnc2n1-c1ccc(C#CC(C)(C)C)cc1C(c1ccccc1Cl)=NC2")
"> 268 °C (dec.)"
>>> reported_value("C#Cc1ccc2c(c1)C(c1ccccc1)=NC(C)c1c(C(=O)OCC)ncn1-2 (centres unmarked)")
"197 to 199 °C"
>>> reported_value("CN1C(=O)CN=C(c2ccccn2)c2cc(C#C[Si](C)(C)C)ccc21")
"194 to 195 °C"
>>> reported_value("C[Si](C)(C)C#Cc1ccc2c(c1)C(c1ccccc1)=NCc1c(C(=O)OCC(F)(F)F)ncn1-2")
"107 to 110 °C"

Quick one: melting point for CCOC(=O)c1ncn2c1C(C)N=C(c1ccccc1)c1cc(C#C[Si](C)(C)C)ccc1-2 (centres unmarked) ? 160 to 162 °C

Which melting point reading was recorded for the compound CCOC(=O)c1ncn2c1C(C)N=C(c1ccccn1)c1cc(C#C[Si](C)(C)C)ccc1-2 (centres unmarked) ? 197 to 198 °C

Reported melting point, compound `CCOC(=O)c1ncn2c1CN=C(c1ccccn1)c1cc(C#C[Si](C)(C)C)ccc1-2` : ____ 205 to 206 °C

Which value of melting point has been reported for `C#Cc1ccc2c(c1)C(c1ccccn1)=NCC(=O)N2C` in the records? 190 to 191 °C

Value lookup for melting point; key = CCOC(=O)c1ncn2c1C(C)N=C(c1ccccc1)c1cc(Br)ccc1-2 (centres unmarked) 164 to 165 °C

Which measured melting point value corresponds to CCOC(=O)c1ncn2c1C(C)N=C(c1ccccc1F)c1cc(C#C[Si](C)(C)C)ccc1-2 (centres unmarked) ? 186 to 187 °C

---

In this section we review reported Antianxiety/ataxia values for a set of compounds.
test system: Male Sprague-Dawley rats; assay: Rotorod performance in rats; conditions: ratio of lowest effective anxiolytic dose (situational anxiety) and lowest effective dose producing side effects in rotorod, PO

Below are worked cases with known answers.
>>> reported_value("C#Cc1ccc2c(c1)C(c1ccccc1)=NCc1c(C(=O)OCC)ncn1-2 [XHe-ii-053]")
">300"
>>> reported_value("C#Cc1ccc2c(c1)C(c1ccccc1)=NCC(=O)N2C [QH-ii-066]")
">100"

Next compound, please.
I'm curious: which Antianxiety/ataxia was measured for CCOC(=O)c1ncn2c1CN=C(c1ccccc1)c1cc(Br)ccc1-2 [DM-i-070] tested on Male Sprague-Dawley rats? >100

The measured values listed here are drawn from patent US7618958B2.
